# Tested on: 996289-038-R-J1-PDC complex spheroid viability;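 note: spheroids exposed to the agents for 7 days before readout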
# EXPERIMENT NOTES: Anticancer human tumor 996289-038-R-J1-PDC patient-derived colon adenocarcinoma cell line growth inhibition [CLK]; active = viability on the fitted dose curve at most 10% of control; inactive = the rest
# CONDITION SUMMARY: second compound 3.16 µM; first compound 0.316 µM
Result category, one only: active, inactive

COMPOUND	CATEGORY
O=C(c1cc(Cc2n[nH]c(=O)c3ccccc23)ccc1F)N1CCN(C(=O)C2CC2)CC1 + CN1CCN(c2cc(C(=O)Nc3cc4cc(-c5cnn(C)c5)ccc4cn3)ccn2)CC1	active
C#Cc1c(F)ccc2cc(O)cc(-c3ncc4c(N5CC6CCC(C5)N6)nc(OCC56CCCN5CC(F)C6)nc4c3F)c12 (configuration not stated) + CNC(=O)c1ccc(Nc2nc(OC3CCCC3)c3c(-c4ccc5nc(C)oc5c4)c[nH]c3n2)c(OC)c1	inactive
COc1c(OCCCN2CCOCC2)ccc2c3n(c(=NC(=O)c4cnc(N)nc4)nc12)CCN3 + CN1CCN(c2cc(C(=O)Nc3cc4cc(-c5cnn(C)c5)ccc4cn3)ccn2)CC1	active

Prompt: Please state the recorded outcome for this compound: CCc1c2c(nc3ccc(O)cc13)-c1cc3c(c(=O)n1C2)COC(=O)[C@]3(O)CC + CN1CCN(c2cc(C(=O)Nc3cc4cc(-c5cnn(C)c5)ccc4cn3)ccn2)CC1
Response: active

Prompt: Now consider CC1(C)CCC(CN2CCN(c3ccc(C(=O)NS(=O)(=O)c4ccc(NCC5CCOCC5)c([N+](=O)[O-])c4)c(Oc4cnc5[nH]ccc5c4)c3)CC2)=C(c2ccc(Cl)cc2)C1 + CNC(=O)c1ccc(Nc2nc(OC3CCCC3)c3c(-c4ccc5nc(C)oc5c4)c[nH]c3n2)c(OC)c1 .
Response: inactive

Prompt: Proceed to CC1COCCN1c1cc(C2(S(C)(=N)=O)CC2)nc(-c2ccnc3[nH]ccc23)n1 (configuration not stated) + CN1CCN(c2cc(C(=O)Nc3cc4cc(-c5cnn(C)c5)ccc4cn3)ccn2)CC1
Response: active

Prompt: Same lookup for COc1cccc2c1C(=O)c1c(O)c3c(c(O)c1C2=O)CC(O)(C(=O)CO)CC3OC1CC(N)C(O)C(C)O1 (configuration not stated) + CN1CCN(c2cc(C(=O)Nc3cc4cc(-c5cnn(C)c5)ccc4cn3)ccn2)CC1 , please.
Response: active

Source: PubChem BioAssay AID2060600
